Record form. Attribute: log10 of Ki/KI. Fill in for each entry.
biological target: Neutrophil elastase (Homo sapiens) (UniProt P08246); assay: Evaluation of kinetic parameter Ki/KI(1/M.1/S) by its ability to inhibit the HLE(Human Leukocyte Elastase) enzyme.
Sequence (P08246 whole entry): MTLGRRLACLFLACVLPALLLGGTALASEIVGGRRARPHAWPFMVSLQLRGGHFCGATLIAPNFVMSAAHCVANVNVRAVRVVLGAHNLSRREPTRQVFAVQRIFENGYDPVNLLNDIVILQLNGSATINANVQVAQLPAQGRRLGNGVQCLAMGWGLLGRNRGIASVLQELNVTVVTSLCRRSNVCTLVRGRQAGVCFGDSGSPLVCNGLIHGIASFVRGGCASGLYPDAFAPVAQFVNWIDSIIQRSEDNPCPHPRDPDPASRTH
Parameter value (number): base-10 log of Ki/KI in M⁻¹ s⁻¹.

Requested read-out: log10 of Ki/KI. Entry: `Cc1ccc2oc(=O)c(C(=O)Oc3cncc(Cl)c3)cc2c1`
4.51

Requested read-out: log10 of Ki/KI. Entry: `O=C(Oc1ccccc1)c1cc2cc(CCl)ccc2oc1=O`
1.36

Requested read-out: log10 of Ki/KI. Entry: `Cc1cncc(OC(=O)c2cc3cc(CCl)ccc3oc2=O)c1`
3.00

Requested read-out: log10 of Ki/KI. Entry: `CC(C)C(=O)OCc1ccc2oc(=O)c(C(=O)Oc3cncc(Cl)c3)cc2c1`
4.65

Requested read-out: log10 of Ki/KI. Entry: `Cc1ccnc(OC(=O)c2cc3cc(CCl)ccc3oc2=O)c1`
2.48

Requested read-out: log10 of Ki/KI. Entry: `O=C(Oc1ccccn1)c1cc2cc(CCl)ccc2oc1=O`
2.62

Requested read-out: log10 of Ki/KI. Entry: `CCCC(=O)OCc1ccc2oc(=O)c(C(=O)Oc3cncc(Cl)c3)cc2c1`
4.86
